Data origin, for the record: patent US20260125477A1

Examples of binders with documented Response (RU) follow.
Biological target: T1, human B7-H6/NCR3LG1 protein, with His tag (human, UniProt Q68D85 25-262, limits assumed)
T1 construct: Bought protein
T1 sequence (looked up): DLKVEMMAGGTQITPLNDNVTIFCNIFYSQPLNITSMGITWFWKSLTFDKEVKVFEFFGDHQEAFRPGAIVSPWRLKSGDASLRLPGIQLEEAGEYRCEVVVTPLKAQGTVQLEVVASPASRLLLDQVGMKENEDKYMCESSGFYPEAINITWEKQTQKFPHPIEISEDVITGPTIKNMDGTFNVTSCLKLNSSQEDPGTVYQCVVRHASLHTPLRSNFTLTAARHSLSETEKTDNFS
Experiment: SPR (Biacore T200), antibody captured on Protein A chip, response at 200 nM antigen
Could you give me the number in RU? Just the number is fine.

Worked set:
6B5 (antibody, human IgG1, kappa, V domains shown, also called 6B5-WT; Ab6B5) VH: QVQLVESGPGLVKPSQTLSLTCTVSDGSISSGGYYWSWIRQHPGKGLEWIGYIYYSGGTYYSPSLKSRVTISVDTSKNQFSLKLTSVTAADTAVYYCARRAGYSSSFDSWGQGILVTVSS VL: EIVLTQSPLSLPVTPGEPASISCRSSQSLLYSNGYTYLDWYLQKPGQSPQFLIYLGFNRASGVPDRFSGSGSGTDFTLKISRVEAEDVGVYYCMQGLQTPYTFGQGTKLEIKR; -0.2
Enoblituzumab (antibody, human IgG1, kappa, V domains shown, Humanized anti-B7-H3 antibody of MacroGenics with optimised Fc, used as the positive control; also called AbEno; enoblituzumab-IgG1-Mut) VH: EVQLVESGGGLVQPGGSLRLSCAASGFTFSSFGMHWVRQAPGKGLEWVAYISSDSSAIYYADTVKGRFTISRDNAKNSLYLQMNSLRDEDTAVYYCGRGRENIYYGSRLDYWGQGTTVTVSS VL: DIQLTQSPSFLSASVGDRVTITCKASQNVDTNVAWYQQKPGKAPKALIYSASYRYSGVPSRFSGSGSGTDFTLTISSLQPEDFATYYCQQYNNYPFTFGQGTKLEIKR; -2.2
10F5 (antibody, human IgG1, kappa, V domains shown, also called Ab10F5) VH: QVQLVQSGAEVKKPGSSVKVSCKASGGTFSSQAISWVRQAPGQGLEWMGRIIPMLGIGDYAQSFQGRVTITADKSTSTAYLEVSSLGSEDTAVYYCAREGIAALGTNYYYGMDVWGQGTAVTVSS VL: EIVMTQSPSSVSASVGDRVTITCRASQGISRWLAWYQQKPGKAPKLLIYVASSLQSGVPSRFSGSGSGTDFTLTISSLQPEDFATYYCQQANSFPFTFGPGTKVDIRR; -0.4

Consider the additional binder presented here.
Answer with the recorded Response (RU) for the binder listed here: 10D7 (antibody, human IgG1, kappa, V domains shown, also called 10D7-WT; Ab10D7) VH: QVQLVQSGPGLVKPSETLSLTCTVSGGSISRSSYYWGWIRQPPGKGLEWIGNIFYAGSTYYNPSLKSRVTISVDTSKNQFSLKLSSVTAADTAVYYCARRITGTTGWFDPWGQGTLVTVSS VL: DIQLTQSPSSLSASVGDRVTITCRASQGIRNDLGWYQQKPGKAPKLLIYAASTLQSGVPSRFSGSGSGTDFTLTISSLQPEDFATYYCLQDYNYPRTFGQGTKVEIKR
-0.5
